These measurements were taken from PubChem BioAssay AID2240.

// inhibition lookup, one value per entry
assay.name: blocks MITF activity, primary screen, MITF inhibitor project, cell-based, luminescence (AID 2240);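 note: human melanocyte line stably carrying TRPM1 promoter luciferase reporter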
condition.parameters: TRPM1 promoter luciferase, 24 h, active compounds read high, concentration not given here
The campaign covered roughly 37,000 compounds. About 100 (0.27%) were called active. The entries come from a sample that favours actives as a whole.
Express the result in % but write the number alone.

Study these solved cases before continuing.
smiles.representation | measurement.unit | inhibition
O=C(CSc1nnc2c(n1)[nH]c1ccccc12)Nc1cccc(C(F)(F)F)c1 | % | 63.8
COc1ccc(NC(=O)Nc2cccc3c2O[C@@H](CN(C)S(=O)(=O)c2ccc(C)cc2)[C@H](C)CN([C@@H](C)CO)C3=O)cc1 | % | -6.48
COc1ccc(CCNc2nc(-c3cccc(NC(C)=O)c3)cs2)cc1OC | % | 15.8

Shift focus to the following entry.
Ask: So what does the record say about inhibition for C[C@@H]1CN([C@H](C)CO)C(=O)c2cc(NC(=O)CCCCCC(=O)Nc3ccccc3N)ccc2O[C@H]1CN(C)C(=O)Nc1ccc(C(F)(F)F)cc1 ?
Reply: 1.03
